target: Hexose transporter 1 (Plasmodium falciparum) (UniProt O97467); experiment: ST_JUDE_LEISH: Cytotoxicity at 2uM final concentration against transgenic Leishmania Mexicana promastigotes LmPfHT that are glucose transport deficient and complemented with the Plasmodium falciparum hexose transporter. Activity is measured by DNA content using SYBR green in vitro; type: functional
Parameter Measured: inhibition (%)

molecule=O=C(Nc1cccc(C(F)(F)F)c1)c1cccc(S(=O)(=O)NCC2CCN(CC3CCCCC3)CC2)c1 number=-0.63
molecule="CC(CCCC(=O)Nc1ccc(CC(C)NCCc2cccc(Cl)c2)cc1)NCCc1cccc(Cl)c1 (centres undefined)" number=0.02
molecule=Cc1cccc2nc(-c3cccc(-c4cccc(CNCCCN5CCCC5=O)c4)c3)[nH]c12 number=-0.59
molecule="COc1cccc(-c2csc(C(=O)NCC3CCN(Cc4ccc(C(C)(C)C)cc4)C3)c2)c1 (centres undefined)" number=-1.27
molecule="COc1ccccc1C1CCN(C2CCC(NC(=O)c3cc4ccccc4[nH]3)CC2)CC1 (centres undefined)" number=-0.24
molecule=COc1ccc(Br)cc1/C=C/C(=O)Nc1cccc(C2CCN(C)CC2)c1 number=0.87
molecule=O=[N+]([O-])c1cccc(-c2ccc(C=NNc3cc(N4CCCC4)nc(N4CCCC4)n3)o2)c1 number=3.17
molecule="COc1ccc(CCNCC(O)COc2nccc3c(S(=O)(=O)N4CCCNCC4)cccc23)cc1OC (centres undefined)" number=-1.2
molecule="Cc1cc(C(=O)Nc2ccc3c(c2)CCN3C2CCN(Cc3cccc(F)c3F)C2)no1 (centres undefined)" number=-0.88
molecule=O=C(/C=C/c1ccc([N+](=O)[O-])cc1)N1CCC(NS(=O)(=O)c2ccc(F)cc2)CC1 number=3.96
molecule=CC(=O)Nc1nc(C(=O)Nc2cccc(-c3ccc(-c4nc5cccc(C)c5[nH]4)cc3)c2)cs1 number=7.51
molecule=Cc1nc(C)c(CC(=O)Nc2ccc(-c3ccc(-c4nc5cc(C(F)(F)F)ccc5[nH]4)s3)cc2)s1 number=2.1
molecule=Cc1cc(N[C@@H](CC(C)C)C(=O)Nc2ccccc2)nc(Nc2ccccc2)n1 number=-0.52
molecule=O=C(Nc1cccc(CN2CCCN(CC3CC3)CC2)c1)c1ccc(-c2ccccc2)cc1 number=4.69
molecule=C=C[C@H]1CN(CCCCCCC)CC[C@H]1C[C@@H](Cc1ccnc2ccc(OC)cc12)OC(=O)[C@](OC)(c1ccccc1)C(F)(F)F number=-0.32
molecule="CC(C)C(=O)NC(NC(=S)Nc1ccc(Br)cc1)C(Cl)(Cl)Cl (centres undefined)" number=2.18
molecule=Cc1cc(-c2ccc(CNCc3ccsc3)cc2)ccc1S(=O)(=O)NCCN1CCCC1 number=21.9
molecule=Cc1cccc(CNc2nc(C)cc(N[C@@H](Cc3ccccc3)C(=O)NC3CCCC3)n2)c1 number=12.4
molecule=CCN(CCCN1CCCCC1)c1cc(C)nc(Nc2ccc(OC)cc2)n1 number=-1.06

* * *

target: Solute carrier family 2, facilitated glucose transporter member 1 (Homo sapiens); test: ST_JUDE_LEISH: Cytotoxicity at 2uM final concentration against transgenic Leishmania Mexicana promastigotes LmGLUT1 that are glucose transport deficient and complemented with the human glucose transporter GLUT1. Activity is measured by DNA content using SYBR green in vitro; type: functional
Reported inhibition by item:
Parameter Measured: inhibition (%)

compound="O=C(/C=C/c1ccc(Cl)c(Cl)c1)NCCCCCN1CCCC(C(=O)Nc2ccc(Cl)cc2)C1 (stereo not given)" parameter_measured=inhibition number=3.76
compound=Cc1nnsc1C(=O)Nc1ccc(-c2ccc(-c3nc4ccccc4[nH]3)s2)cc1 parameter_measured=inhibition number=4.65
compound="O=C(Cc1ccc(Cl)cc1)NC1CCN(c2ccnc3cc(Cl)ccc23)C1 (stereo not given)" parameter_measured=inhibition number=-0.91
compound=Cc1cc(-c2ccc(NC(=O)Nc3ccc4nccc(N5CCN(C)CC5)c4c3)cc2C)cc(C)n1 parameter_measured=inhibition number=7.15
compound=COc1ccc(-c2nc(NCc3ccccc3)c3cc(OC)c(OC)cc3n2)cc1 parameter_measured=inhibition number=10.8

Cited source: ChEMBL document CHEMBL3433997
